Each recorded value in this set is attributed to DBAASP.

List of MIC tested on Staphylococcus aureus ATCC 9144.

Entry CC[C@H](C)[C@H](NC(=O)CNC(=O)[C@H](CCCN=C(N)N)NC(=O)[C@@H](NC(=O)[C@H](CC(C)C)NC(=O)[C@H](CO)NC(=O)CNC(=O)[C@@H](NC(=O)[C@@H](N)CC(C)C)[C@@H](C)CC)C(C)C)C(=O)N[C@@H](CC(C)C)C(=O)N1CCC[C@H]1C(=O)N[C@@H](CC(C)C)C(=O)N[C@@H](Cc1ccccc1)C(N)=O , tested on Staphylococcus aureus ATCC 9144, has a reported MIC of ≥ 45.8 µM

The observed MIC for C[C@H](NC(=O)[C@H](CCCCN)NC(=O)[C@H](Cc1c[nH]c2ccccc12)NC(=O)CNC(=O)[C@H](Cc1c[nH]c2ccccc12)NC(=O)[C@H](Cc1c[nH]c2ccccc12)NC(=O)[C@H](CCCCN)NC(=O)[C@H](CCCCN)NC(=O)CN)C(=O)N[C@@H](CCCCN)C(N)=O when tested with Staphylococcus aureus ATCC 9144 stands at ≥ 196 µM

Staphylococcus aureus ATCC 9144 MIC of CC[C@H](C)[C@H](N)C(=O)N[C@@H](CCCCN)C(=O)N[C@@H](Cc1c[nH]c2ccccc12)C(=O)N[C@@H](C)C(=O)NCC(=O)N[C@@H](CCCCN)C(=O)N[C@@H](CC(C)C)C(=O)N[C@@H](Cc1ccccc1)C(=O)N[C@@H](CCCCN)C(=O)N[C@@H](CC(C)C)C(=O)N[C@@H](Cc1ccccc1)C(=O)N[C@@H](CCCCN)C(N)=O is 2.7 µM

The compound CC[C@H](C)[C@H](NC(=O)[C@@H](N)CC(=O)O)C(=O)NCC(=O)N[C@@H](CCCCN)C(=O)N[C@@H](Cc1ccc(O)cc1)C(=O)N[C@@H](CS)C(=O)NCC(=O)N[C@@H](Cc1ccc(O)cc1)C(=O)N[C@@H](C)C(=O)N[C@@H](Cc1cnc[nH]1)C(=O)N[C@@H](C)C(=O)N[C@@H](CC(C)C)C(=O)N[C@@H](CC(N)=O)C(N)=O on Staphylococcus aureus ATCC 9144: MIC was ≥ 100 µM

Observed MIC, Staphylococcus aureus ATCC 9144, CC[C@H](C)[C@H](NC(=O)[C@@H]1CCCN1C(=O)[C@H](CCCCN)NC(=O)[C@@H]1CCCN1C(=O)[C@H](CCCN=C(N)N)NC(=O)CNC(=O)[C@@H]1CCCN1C(=O)[C@H](Cc1ccccc1)NC(=O)[C@@H]1CCCN1C(=O)[C@H](CCCN=C(N)N)NC(=O)[C@@H]1CCCN1C(=O)[C@H](CCCN=C(N)N)NC(=O)CNC(=O)[C@@H]1CCCN1C(=O)[C@@H](N)CO)C(=O)N[C@@H](Cc1ccccc1)C(=O)N[C@@H](CCCN=C(N)N)C(=O)N1CCC[C@H]1C(=O)N[C@@H](CCCN=C(N)N)C(=O)O : ≥ 100 µM

With Staphylococcus aureus ATCC 9144 as the test system, CC[C@H](C)[C@H](NC(=O)[C@H](CCCCN)NC(=O)[C@H](CCC(=O)O)NC(=O)[C@H](Cc1c[nH]c2ccccc12)NC(=O)[C@H](Cc1ccccc1)NC(=O)[C@H](CCCCN)NC(=O)CNC(=O)[C@H](CC(C)C)NC(=O)[C@H](C)N)C(=O)N[C@@H](CCCCN)C(=O)N[C@@H](CO)C(=O)N[C@@H](CC(C)C)C(=O)N[C@@H](Cc1ccccc1)C(N)=O showed MIC of 2.55 µM

# CC[C@H](C)[C@H](NC(=O)[C@H](C)NC(=O)[C@H](CCCCN)NC(=O)[C@@H]1CCCN1C(=O)[C@@H](NC(=O)[C@H](CC(C)C)NC(=O)[C@H](CO)NC(=O)[C@H](Cc1ccccc1)NC(=O)[C@H](CC(C)C)NC(=O)[C@@H](N)Cc1ccccc1)[C@@H](C)CC)C(=O)NCC(=O)NCC(=O)N[C@@H](CC(C)C)C(=O)N[C@H](C(=O)N[C@@H](CO)C(=O)N[C@@H](C)C(=O)N[C@@H](Cc1ccccc1)C(=O)N[C@@H](CCCCN)C(N)=O)[C@@H](C)CC with Staphylococcus aureus ATCC 9144: MIC is 2.08 µM

Given the compound CC(C)[C@H](NC(=O)[C@H](CCCCN)NC(=O)[C@H](C)NC(=O)[C@@H](NC(=O)[C@@H](NC(=O)[C@H](CCCN=C(N)N)NC(=O)[C@H](CCCN=C(N)N)NC(=O)[C@H](Cc1c[nH]c2ccccc12)NC(=O)[C@H](Cc1c[nH]c2ccccc12)NC(=O)CN)[C@@H](C)O)C(C)C)C(=O)N[C@@H](CCCN=C(N)N)C(=O)N[C@@H](CC(N)=O)C(N)=O and test system Staphylococcus aureus ATCC 9144, the measured MIC is ≥ 50 µM

Form field MIC for item CC(C)[C@H](NC(=O)[C@H](CCCCN)NC(=O)[C@H](C)NC(=O)[C@@H](NC(=O)[C@@H](NC(=O)[C@H](CCCN=C(N)N)NC(=O)[C@H](CCCN=C(N)N)NC(=O)[C@H](Cc1c[nH]c2ccccc12)NC(=O)[C@H](Cc1c[nH]c2ccccc12)NC(=O)CN)[C@@H](C)O)C(C)C)C(=O)N[C@@H](C)C(=O)N[C@@H](CCCCN)C(N)=O on Staphylococcus aureus ATCC 9144: ≥ 100 µM
